// data source = patent US7595334B2

# System: HIV strain A (clinically isolated, protease mutations)
# Format: cell-based
# CONDITION CONTEXT: FR=EC50(mutant strain A)/EC50(HIV-1 strain LAI)
ASSAY READOUT: A (FR) fold resistance
Answers are plain numbers.

Use the examples below as a reference point.
CC(C)CN(C[C@@H](O)[C@H](Cc1ccccc1)NC(=O)OCc1cncs1)S(=O)(=O)c1ccc2nc(NC(=O)CN3CCN(C)CC3)oc2c1 [Compound 25] : 3.9
CC(C)CN(C[C@@H](O)[C@H](Cc1ccccc1)NC(=O)O[C@H]1CO[C@H]2OCC[C@H]21)S(=O)(=O)c1ccc2nc(NCCN3CCCC3)oc2c1 [Compound 4] : 1.95
COC(=O)Nc1nc2ccc(S(=O)(=O)N(CC(C)C)C[C@@H](O)[C@H](Cc3ccccc3)NC(=O)OCc3cncs3)cc2o1 [Compound 9] : 3.5
CC(C)CN(C[C@@H](O)[C@H](Cc1ccccc1)NC(=O)OCc1cncs1)S(=O)(=O)c1ccc2nc(NC(=O)C3CCC(=O)N3)oc2c1 (stereo partly drawn) [Compound 13] : 2.3
CC(C)CN(C[C@@H](O)[C@H](Cc1ccccc1)NC(=O)OCc1cncs1)S(=O)(=O)c1ccc2nc(N(C)C(=O)C3CCN(C)CC3)oc2c1 [Compound 28] : 4.4

Each compound below has a recorded value; state its A (FR) fold resistance.
1. CC(C)CN(C[C@@H](O)[C@H](Cc1ccccc1)NC(=O)OCc1cncs1)S(=O)(=O)c1ccc2nc(N(C)C(=O)c3ccccn3)oc2c1 [Compound 26]
2. CC(C)CN(C[C@@H](O)[C@H](Cc1ccccc1)NC(=O)OCc1cncs1)S(=O)(=O)c1ccc2nc(NC(=O)c3cccnc3)oc2c1 [Compound 18]
3. CC(=O)Nc1nc2ccc(S(=O)(=O)N(CC(C)C)C[C@@H](O)[C@H](Cc3ccccc3)NC(=O)OCc3cncs3)cc2o1 [Compound 11]

Given back:
9.3
2.6
42

Asked: A (FR) fold resistance lookup needed for CC(C)CN(C[C@@H](O)[C@H](Cc1ccccc1)NC(=O)OCc1cncs1)S(=O)(=O)c1ccc2nc(NC(=O)CN(C)C)oc2c1 [Compound 19] , thanks.
Given back: 3.0

---

# Tested on: HIV strain E (clinically isolated, protease mutations)
# Assay type: cell-based
# CONDITION CONTEXT: FR=EC50(mutant strain E)/EC50(HIV-1 strain LAI)
For each record, write down the corresponding E (FR) fold resistance.

CC(C)CN(C[C@@H](O)[C@H](Cc1ccccc1)NC(=O)OCc1cncs1)S(=O)(=O)c1ccc2nc(NC(=O)C3CCCN3C)oc2c1 (stereo partly drawn) : 2.3
CC(=O)Nc1nc2ccc(S(=O)(=O)N(CC(C)C)C[C@@H](O)[C@H](Cc3ccccc3)NC(=O)O[C@H]3CO[C@H]4OCC[C@H]43)cc2o1 : 0.40
CC(C)CN(C[C@@H](O)[C@H](Cc1ccccc1)NC(=O)O[C@H]1CO[C@H]2OCC[C@H]21)S(=O)(=O)c1ccc2nc(NCCN(C)C)oc2c1 : 0.36
CC(C)CN(C[C@@H](O)[C@H](Cc1ccccc1)NC(=O)OCc1cncs1)S(=O)(=O)c1ccc2nc(NC(=O)c3ccccn3)oc2c1 : 1.1
CC(C)CN(C[C@@H](O)[C@H](Cc1ccccc1)NC(=O)OCc1cncs1)S(=O)(=O)c1ccc2nc(NC(=O)C3CCN(C)CC3)oc2c1 : 1.5

Asked: E (FR) fold resistance lookup needed for "CC(=O)Nc1nc2ccc(S(=O)(=O)N(CC(C)C)C[C@@H](O)[C@H](Cc3ccccc3)NC(=O)OCc3cncs3)cc2o1" , thanks.
Given back: 4.8
